Listed here: items and their measured pKi.
- experimentalTarget: hA1 receptors expressed in CHO cells (Homo sapiens, UniProt P30542)
- Sequence (P30542 whole entry): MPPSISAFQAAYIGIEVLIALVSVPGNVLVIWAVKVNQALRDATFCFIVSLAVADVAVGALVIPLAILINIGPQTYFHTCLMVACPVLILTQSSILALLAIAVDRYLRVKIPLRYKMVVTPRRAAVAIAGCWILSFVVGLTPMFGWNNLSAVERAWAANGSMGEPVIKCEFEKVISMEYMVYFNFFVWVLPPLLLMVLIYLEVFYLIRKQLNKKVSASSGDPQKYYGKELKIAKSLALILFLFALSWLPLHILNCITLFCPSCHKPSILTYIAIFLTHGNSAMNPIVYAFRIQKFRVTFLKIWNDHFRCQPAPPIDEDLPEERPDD
- protocolText: [3H]CHA binding hA1 CHO cells
- reportedConditions: read-out: [3H]CHA binding hA1 CHO cells Ki; 1 nM [3H]-CHA, hA1 CHO cell membranes, 150 min at 25° C.; mean ± s.e. mean
The meaning of pKi here: minus log10 of the concentration in molar units.

> print(dat)
                                   molecule  experimentalresult
1  CCNC(=O)[C@H]1O[C@@H](n2cnc3c(NNC(=O)c4cccs4)nc(Cl)nc32)[C@H](O)[C@@H]1O [Compound 22b]                6.13
2  CCNC(=O)[C@H]1O[C@@H](n2cnc3c(NNC(=O)c4ccc[nH]4)nc(Cl)nc32)[C@H](O)[C@@H]1O [Compound 24b]                6.21

Prompt: // map CCNC(=O)[C@H]1O[C@@H](n2cnc3c(NNC(=O)c4ccc(C)o4)ncnc32)[C@H](O)[C@@H]1O [Compound 14b] to recorded pKi (system: hA1 receptors expressed in CHO cells (Homo sapiens, UniProt P30542))
Completion: 6.15

Prompt: Tell me reported pKi for CCNC(=O)[C@H]1O[C@@H](n2cnc3c(NNC(=O)Cc4cccs4)nc(Cl)nc32)[C@H](O)[C@@H]1O [Compound 20b] , tested with hA1 receptors expressed in CHO cells (Homo sapiens, UniProt P30542).
Completion: 7.21

Prompt: Give pKi (hA1 receptors expressed in CHO cells (Homo sapiens, UniProt P30542)) of the following molecule: CCNC(=O)[C@H]1O[C@@H](n2cnc3c(NNC(=O)c4ccsc4)nc(Cl)nc32)[C@H](O)[C@@H]1O [Compound 21b]
Completion: 6.03

* * *

# key: entry, value: Ki
- experimentalTarget: hA2A receptors expressed in CHO cells (Homo sapiens, UniProt P29274)
- Construct: expressed in transfected cells; host or cells: CHO cells (stably transfected, per Klotz et al. 1998); membrane preparation
- Sequence (P29274 whole entry): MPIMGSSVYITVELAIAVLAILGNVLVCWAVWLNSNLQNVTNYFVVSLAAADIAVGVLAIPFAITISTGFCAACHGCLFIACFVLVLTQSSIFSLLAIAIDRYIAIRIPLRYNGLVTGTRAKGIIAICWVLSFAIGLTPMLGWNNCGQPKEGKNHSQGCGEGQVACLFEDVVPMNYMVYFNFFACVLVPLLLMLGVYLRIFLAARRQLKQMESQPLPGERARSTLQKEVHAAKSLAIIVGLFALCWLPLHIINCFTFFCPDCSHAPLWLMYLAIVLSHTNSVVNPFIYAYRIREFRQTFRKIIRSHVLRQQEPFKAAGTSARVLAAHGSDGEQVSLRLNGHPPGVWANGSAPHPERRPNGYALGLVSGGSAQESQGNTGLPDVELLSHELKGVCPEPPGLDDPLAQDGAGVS
- protocolText: [3H]CGS21680 binding hA2A CHO cells
- reportedConditions: [3H]-CGS 21680, hA2A CHO cell membranes, 180 min at 25° C.; mean ± s.e. mean

Sample records with Ki:
> print(dat)
                                   molecule                        experimentaltarget  experimentalresult
1  CCNC(=O)[C@H]1O[C@@H](n2cnc3c(NNC(=O)c4ccco4)nc(Cl)nc32)[C@H](O)[C@@H]1O [Compound 18b]  hA2A receptors expressed in CHO cells (Homo sapiens, UniProt P29274)              > 1 µM
2  CCNC(=O)[C@H]1O[C@@H](n2cnc3c(NNC(=O)c4sccc4C)nc(Cl)nc32)[C@H](O)[C@@H]1O [Compound 23b]  hA2A receptors expressed in CHO cells (Homo sapiens, UniProt P29274)              > 1 µM
3  CCNC(=O)[C@H]1O[C@@H](n2cnc3c(NNC(=O)c4ccco4)ncnc32)[C@H](O)[C@@H]1O [Compound 12b]  hA2A receptors expressed in CHO cells (Homo sapiens, UniProt P29274)              > 1 µM
4  CCNC(=O)[C@H]1O[C@@H](n2cnc3c(NNC(=O)c4ccc(C)o4)ncnc32)[C@H](O)[C@@H]1O [Compound 14b]  hA2A receptors expressed in CHO cells (Homo sapiens, UniProt P29274)              1.3 µM

Now for another entry.
Prompt: GET /values?readout=Ki&item= CCNC(=O)[C@H]1O[C@@H](n2cnc3c(NNC(=O)c4cccnc4)ncnc32)[C@H](O)[C@@H]1O [Compound 11b]
Completion: > 1 µM
